Source listed as paper PMC6859848.

Biological target: T1, HNRNPH1 qRRM2-3 (qRRM2-GYR-qRRM3) (UniProt P31943 103-381)
T1 sequence: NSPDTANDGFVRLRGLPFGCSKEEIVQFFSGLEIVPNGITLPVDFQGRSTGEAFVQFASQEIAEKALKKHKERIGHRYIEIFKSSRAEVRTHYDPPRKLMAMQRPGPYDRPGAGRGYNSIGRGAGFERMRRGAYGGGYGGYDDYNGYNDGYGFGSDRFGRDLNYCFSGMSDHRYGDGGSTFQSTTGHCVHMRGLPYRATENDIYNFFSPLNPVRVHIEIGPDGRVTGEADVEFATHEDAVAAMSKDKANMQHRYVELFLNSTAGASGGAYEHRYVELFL
Assay: SPR
endpoint.label: Kd (nM)
Give bare numbers, in nM.

Entry under test: ACCGGGGCAGGGGAAGAGGGGG (structured_RNA) [rG1 5'-biotin (SPR)] . Its Kd was 97
